target: Serine/threonine-protein kinase PAK 4 (Homo sapiens); test: Inhibition of N-terminal 6His-tagged human recombinant PAK4 kinase domain (300 to 591 residues) using EVPRRKSLVGTPYWM peptide as substrate assessed as inhibition constant in presence of ATP by biochemical assay
Sequence (O96013 whole entry, the tested form may be a part): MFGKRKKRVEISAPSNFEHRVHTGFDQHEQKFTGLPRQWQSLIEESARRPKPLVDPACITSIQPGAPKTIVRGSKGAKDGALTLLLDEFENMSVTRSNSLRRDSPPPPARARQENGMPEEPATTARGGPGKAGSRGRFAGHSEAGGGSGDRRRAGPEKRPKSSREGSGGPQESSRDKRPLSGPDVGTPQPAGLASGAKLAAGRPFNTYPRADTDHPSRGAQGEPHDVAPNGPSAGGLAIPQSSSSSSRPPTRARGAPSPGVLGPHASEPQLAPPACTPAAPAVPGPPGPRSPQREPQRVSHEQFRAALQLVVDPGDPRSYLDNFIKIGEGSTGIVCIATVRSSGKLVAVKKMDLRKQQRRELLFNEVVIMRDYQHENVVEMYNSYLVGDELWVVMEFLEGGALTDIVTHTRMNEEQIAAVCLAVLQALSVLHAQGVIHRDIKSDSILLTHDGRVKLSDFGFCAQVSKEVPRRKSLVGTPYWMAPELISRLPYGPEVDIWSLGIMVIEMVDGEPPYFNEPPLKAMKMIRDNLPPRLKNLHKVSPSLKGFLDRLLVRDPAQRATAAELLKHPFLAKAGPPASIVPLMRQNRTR
pKi: −log10 of the molar value.
quantity: pKi

1) C[C@@H]1CN(C(=O)N2Cc3c(NC(=O)c4ccccn4)n[nH]c3C2(C)C)[C@@H](C)CN1CC1CCOCC1 | 4.28

----------
tested on: NCI-H1651; experiment: Antiproliferative activity against human NCI-H1651 cells assessed as inhibition of cell proliferation incubated for 3 days by CellTiter-Glo Luminescent Cell Viability Assay; format: functional, cell-based; details: NCI-H1651, 72 h
pIC50: −log10 of the molar value.
quantity: pIC50

1) Cc1nc(Nc2n[nH]c3c2CN(C(=O)N[C@H](CN(C)C)c2ccccc2)C3(C)C)c2sccc2n1 | 7.70

----------
assay: Antiproliferative activity against human PaTu 8988s cells assessed as inhibition of cell proliferation incubated for 3 days by CellTiter-Glo Luminescent Cell Viability Assay; format: functional, cell-based; details: 72 h
pIC50: −log10 of the molar value.
quantity: pIC50

1) Cc1nc(Nc2n[nH]c3c2CN(C(=O)N[C@H](CN(C)C)c2ccccc2)C3(C)C)c2sccc2n1 | 6.13

----------
molecular target: Serine/threonine-protein kinase D1 (Homo sapiens); assay: Inhibition of human PKCmu in presence of ATP by cellular assay
Sequence (Q15139 whole entry): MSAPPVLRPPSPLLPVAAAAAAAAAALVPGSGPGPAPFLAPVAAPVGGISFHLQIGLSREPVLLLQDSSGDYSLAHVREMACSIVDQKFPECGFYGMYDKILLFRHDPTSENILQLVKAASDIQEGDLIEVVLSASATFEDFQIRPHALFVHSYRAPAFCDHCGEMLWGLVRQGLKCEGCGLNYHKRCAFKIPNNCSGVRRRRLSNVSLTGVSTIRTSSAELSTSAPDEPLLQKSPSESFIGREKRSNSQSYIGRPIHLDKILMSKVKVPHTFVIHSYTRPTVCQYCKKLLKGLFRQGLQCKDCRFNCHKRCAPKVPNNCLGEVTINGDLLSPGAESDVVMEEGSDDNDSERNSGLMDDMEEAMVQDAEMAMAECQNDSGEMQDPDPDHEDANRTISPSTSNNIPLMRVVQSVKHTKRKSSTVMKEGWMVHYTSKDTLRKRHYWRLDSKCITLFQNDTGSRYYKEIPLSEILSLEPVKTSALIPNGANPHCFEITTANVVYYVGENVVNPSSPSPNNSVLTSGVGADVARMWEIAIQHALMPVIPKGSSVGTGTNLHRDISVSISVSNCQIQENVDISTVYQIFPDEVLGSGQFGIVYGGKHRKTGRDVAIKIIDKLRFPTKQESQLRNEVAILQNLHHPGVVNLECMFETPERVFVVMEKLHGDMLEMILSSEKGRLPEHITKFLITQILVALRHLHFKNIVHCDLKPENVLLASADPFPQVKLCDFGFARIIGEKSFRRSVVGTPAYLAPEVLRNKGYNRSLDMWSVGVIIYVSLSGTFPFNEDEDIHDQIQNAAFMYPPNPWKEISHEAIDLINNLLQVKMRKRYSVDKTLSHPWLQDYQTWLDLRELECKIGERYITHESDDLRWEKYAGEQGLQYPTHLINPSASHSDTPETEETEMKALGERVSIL
pIC50: −log10 of the molar value.
quantity: pIC50

1) Cc1nc(Nc2n[nH]c3c2CN(C(=O)N[C@H](CN(C)C)c2ccccc2)C3(C)C)c2sccc2n1 | 5.55

----------
biological target: UniProt:P05129
quantity: Ki

1. Cc1nc(Nc2n[nH]c3c2CN(C(=O)N[C@H](CN(C)C)c2ccccc2)C3(C)C)c2sccc2n1 [PF-03758309] | 0.043 µM
